TEST SUMMARY: Aqueous solubility of the compound in 0.01M HCl at pH 2 by nephelometry
Type: physicochemical
Recorded measurements of solubility kinetic, one per entry
REPORTED PROPERTY: solubility kinetic

[[record]]
smiles_str = "O=C(CCCOc1cccc(C(F)(F)F)c1)Nc1ncc(C(F)(F)F)s1"
result = "< 1.6 µM"

[[record]]
smiles_str = "Cc1cnc(NC(=O)CCCOc2cccc(Cl)c2)s1"
result = "< 1.1 µM"

[[record]]
smiles_str = "Cc1cnc(NC(=O)CCCOc2cccc(C#N)c2)s1"
result = "< 1.1 µM"

[[record]]
smiles_str = "Cc1cnc(NC(=O)CCCOc2cccc(C(F)(F)F)c2)s1"
result = "< 1.1 µM"

[[record]]
smiles_str = "O=C(CCCOc1ccccc1)Nc1ncc(Cl)s1"
result = "< 1.2 µM"

[[record]]
smiles_str = "Cc1cnc(NC(=O)CCCOc2cncc(Cl)c2)s1"
result = "1.6 to 3.1 µM"

[[record]]
smiles_str = "N#Cc1cnc(NC(=O)CCCOc2cccc(Cl)c2)s1"
result = "< 1.6 µM"

[[record]]
smiles_str = "Cc1cnc(NC(=O)CCCOc2ccccc2)s1"
result = "1.1 to 2.3 µM"

[[record]]
smiles_str = "Cc1cnc(NC(=O)NCCOc2ccc(Cl)c(C)c2)s1"
result = "1.6 to 3.1 µM"

[[record]]
smiles_str = "N#Cc1cnc(NC(=O)CCCOc2ccccc2)s1"
result = "1.1 to 2.2 µM"

[[record]]
smiles_str = "CC(C)c1cnc(NC(=O)CCCOc2ccccc2)s1"
result = "< 1.2 µM"

[[record]]
smiles_str = "Cc1cnc(NC(=O)CCCOc2cccc(Cl)n2)s1"
result = "< 1.2 µM"

[[record]]
smiles_str = "N#Cc1cnc(NC(=O)CCCOc2cccc(C(F)(F)F)c2)s1"
result = "< 1.6 µM"


FYI, the data here is from ChEMBL document CHEMBL4396867.
